Recorded IC50 for the following compounds
# TEST TARGET: Prostaglandin D2 receptor (Homo sapiens)
# Sequence (Q13258 whole entry): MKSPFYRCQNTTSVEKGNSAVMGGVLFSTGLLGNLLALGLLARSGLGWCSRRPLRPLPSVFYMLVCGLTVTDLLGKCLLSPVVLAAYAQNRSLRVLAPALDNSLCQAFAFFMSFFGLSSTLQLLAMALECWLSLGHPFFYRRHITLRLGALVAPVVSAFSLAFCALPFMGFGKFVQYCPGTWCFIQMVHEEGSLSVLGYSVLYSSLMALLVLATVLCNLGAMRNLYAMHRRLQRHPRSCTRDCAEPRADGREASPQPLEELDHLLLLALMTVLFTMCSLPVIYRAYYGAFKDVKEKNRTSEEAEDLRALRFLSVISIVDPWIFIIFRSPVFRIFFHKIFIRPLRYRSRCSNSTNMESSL
# ASSAY REMARKS: Antagonist activity at prostanoid DP receptor in human platelet rich plasma assessed as inhibition of PGD2-induced intracellular cAMP production after 10 mins by enzyme immunoassay
# RECORDED CONDITIONS: in the assay text read “after 15 mins” for “after 10 mins”
READOUT KIND: IC50

> print(dat)
                                 cpd.smiles  experimental.value
1  Cc1cc(C(=O)Nc2cc(C3(C(=O)O)CC3)ccc2Cl)c(C)cc1OC[C@@H]1CN(C)c2ccccc2O1            0.019 µM
2  Cc1cc(C(=O)Nc2cc(C(C)(C)C(=O)O)ccc2Cl)c(C)cc1OC[C@@H]1CN(C)c2ccccc2O1            0.032 µM
3  Cc1cc2c(CC(=O)O)cccc2n1C(=O)c1ccc(OC[C@@H]2CN(C)c3ccccc3O2)cc1            0.057 µM
4  CN1C[C@@H](COc2ccc(C(=O)Nc3cc(C(C)(C)C(=O)O)ccc3Cl)c(Cl)c2)Oc2ccccc21             0.28 µM
5  Cc1cc(OC[C@@H]2CN(C)c3ccccc3O2)cc(C)c1C(=O)Nc1cc(C(C)(C)C(=O)O)ccc1Cl           0.0081 µM
6  Cc1cc(OC[C@@H]2CN(C)c3ccccc3O2)cc(C)c1C(=O)Nc1cc(CC(=O)O)ccc1Cl           0.0044 µM
7  CN1C[C@@H](COc2ccc(C(=O)Nc3cc(CC(=O)O)ccc3Cl)c(Cl)c2)Oc2ccccc21           > 0.05 µM

###

# TEST TARGET: Prostacyclin receptor (Homo sapiens)
# Sequence (P43119 whole entry): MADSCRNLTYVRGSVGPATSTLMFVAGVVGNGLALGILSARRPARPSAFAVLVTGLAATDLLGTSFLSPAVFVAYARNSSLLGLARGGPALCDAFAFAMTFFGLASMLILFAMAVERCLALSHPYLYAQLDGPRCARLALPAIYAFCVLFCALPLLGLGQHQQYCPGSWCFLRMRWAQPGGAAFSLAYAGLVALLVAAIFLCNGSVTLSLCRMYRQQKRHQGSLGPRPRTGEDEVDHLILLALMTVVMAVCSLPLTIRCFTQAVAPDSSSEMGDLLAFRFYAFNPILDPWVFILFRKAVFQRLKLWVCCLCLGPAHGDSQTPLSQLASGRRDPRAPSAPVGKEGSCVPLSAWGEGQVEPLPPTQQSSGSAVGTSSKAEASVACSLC
# ASSAY REMARKS: Displacement of [3H]Iloprost from human prostanoid IP receptor expressed in CHO cells after 30 mins by liquid scintillation counting
# Format: cell-based
This listing pairs molecules with measured Ki.
READOUT KIND: Ki (nM)

> print(dat)
                                  cpd.smiles  readout.kind  unit.name  value.qualifier  experimental.value
 1  CN1C[C@@H](COc2ccc(C(=O)n3ccc4c(CC(=O)O)cccc43)cc2)Oc2ccccc21            Ki         nM                =                2500
 2  Cc1ccc(CC(=O)O)cc1NC(=O)c1cc(C)c(OC[C@@H]2CN(C)c3ccccc3O2)cc1C            Ki         nM                =                2600
 3  Cc1c(OC[C@@H]2CN(C)c3ccccc3O2)ccc(C(=O)Nc2cccc(CC(=O)O)c2)c1C            Ki         nM                >               10000
 4  Cc1cc(C(=O)Nc2cc(C3(C(=O)O)CC3)ccc2Cl)c(C)cc1OC[C@@H]1CN(C)c2ccccc2O1            Ki         nM                =                1700
 5  Cc1cc(OC[C@@H]2COc3ccccc32)cc(C)c1C(=O)Nc1cc(CC(=O)O)ccc1Cl            Ki         nM                >               10000
 6  Cc1cc(OC[C@@H]2CN(C)c3ccccc3O2)cc(C)c1C(=O)Nc1cc(CC(=O)O)ccc1Cl            Ki         nM                >               10000
 7  Cc1cc(OC[C@@H]2CN(C)c3ccccc3O2)ccc1C(=O)Nc1cc(CC(=O)O)ccc1F            Ki         nM                >               10000
 8  CN1C[C@@H](COc2ccc(C(=O)Nc3cc(C(F)(F)C(=O)O)ccc3Cl)c(Cl)c2)Oc2ccccc21            Ki         nM                =                 520
 9  CN1C[C@@H](COc2ccc(C(=O)Nc3cc(C(C)(C)C(=O)O)ccc3Cl)c(Cl)c2)Oc2ccccc21            Ki         nM                =                3300
10  CN1C[C@@H](COc2ccc(C(=O)Nc3cccc(CC(=O)O)c3)c(Cl)c2)Oc2ccccc21            Ki         nM                =                2700
11  Cc1ccc(CC(=O)O)cc1NC(=O)c1ccc(OC[C@@H]2CN(C)c3ccccc3O2)cc1Cl            Ki         nM                =                1400
12  Cc1cc(OC[C@@H]2CN(C)c3ccccc3O2)cc(C)c1C(=O)Nc1cc(C2(C(=O)O)CC2)ccc1Cl            Ki         nM                >               10000
13  Cc1cc(OC[C@@H]2CN(C)c3ccccc3O2)ccc1C(=O)Nc1cc(CC(=O)O)ccc1Cl            Ki         nM                =                1800
14  Cc1ccc(CC(=O)O)cc1NC(=O)c1c(C)cc(OC[C@@H]2CN(C)c3ccccc3O2)cc1C            Ki         nM                >               10000

###

# TEST TARGET: Prostaglandin D2 receptor (Mus musculus)
# Sequence (P70263 whole entry): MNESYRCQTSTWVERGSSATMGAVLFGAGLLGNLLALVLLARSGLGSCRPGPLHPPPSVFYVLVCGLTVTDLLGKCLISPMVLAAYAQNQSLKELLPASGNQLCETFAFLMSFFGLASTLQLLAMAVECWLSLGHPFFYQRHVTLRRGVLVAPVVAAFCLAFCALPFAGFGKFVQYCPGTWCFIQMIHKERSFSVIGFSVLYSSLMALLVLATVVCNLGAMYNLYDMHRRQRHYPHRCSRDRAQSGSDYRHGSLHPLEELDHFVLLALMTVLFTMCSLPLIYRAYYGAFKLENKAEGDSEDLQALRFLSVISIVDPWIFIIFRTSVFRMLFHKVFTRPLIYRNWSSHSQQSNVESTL
# ASSAY REMARKS: Antagonist activity at mouse prostanoid DP receptor expressed in CHO cells assessed as inhibition of PGD2-induced intracellular cAMP production after 10 mins by enzyme immunoassay
Each entry belongs to exactly one class, chosen by where its IC50 falls: one = under 4 nM, two = from 4 nM up to 20 nM, three = 20 nM and over

> print(dat)
                                  cpd.smiles  assigned.label
 1  Cc1ccc(CC(=O)O)cc1NC(=O)c1ccc(OC[C@@H]2CN(C)c3ccccc3O2)c(C)c1C             two
 2  Cc1cc(OCC2Oc3ccccc3O2)cc(C)c1C(=O)Nc1cc(CC(=O)O)ccc1Cl           three
 3  Cc1c(OC[C@@H]2CN(C)c3ccccc3O2)ccc(C(=O)Nc2cc(CC(=O)O)ccc2Cl)c1C           three
 4  Cc1cc(OC[C@@H]2CN(C)c3ccccc3O2)cc(C)c1C(=O)Nc1cc(C(C)(C)C(=O)O)ccc1Cl             one
 5  CN1C[C@@H](COc2ccc(C(=O)Nc3cc(C(C)(C)C(=O)O)ccc3Cl)c(Cl)c2)Oc2ccccc21             two
 6  Cc1cc(C(=O)Nc2cc(C3(C(=O)O)CC3)ccc2Cl)c(C)cc1OC[C@@H]1CN(C)c2ccccc2O1           three
 7  Cc1cc(OC[C@@H]2CN(C)c3ccccc3O2)cc(C)c1C(=O)Nc1cc(CC(=O)O)ccc1Cl             two
 8  Cc1cc(OC[C@@H]2COc3ccccc32)cc(C)c1C(=O)Nc1cc(CC(=O)O)ccc1Cl             one
 9  Cc1c(OC[C@@H]2CN(C)c3ccccc3O2)ccc(C(=O)Nc2cccc(CC(=O)O)c2)c1C           three
10  Cc1cc(OC[C@@H]2CN(C)c3ccccc3O2)cc(C)c1C(=O)Nc1cc(C2(C(=O)O)CC2)ccc1Cl             one
11  Cc1ccc(CC(=O)O)cc1NC(=O)c1cc(C)c(OC[C@@H]2CN(C)c3ccccc3O2)cc1C             two
12  Cc1cc(OC[C@@H]2CN(C)c3ccccc3O2)cc(C)c1C(=O)Nc1cccc(CC(=O)O)c1             one

###

# ASSAY REMARKS: Total clearance in rat at 1 mg/kg, iv administered as single dose
# Type: ADME, organism-based
# Set-up: dose 1 mg/kg, route intravenous
# RECORDED CONDITIONS: in vivo
# clearance per entry
READOUT KIND: clearance (mL/min/kg)

> print(dat)
                                 cpd.smiles  readout.kind  unit.name  experimental.value
1  Cc1cc(OC[C@@H]2CN(C)c3ccccc3O2)cc(C)c1C(=O)Nc1cc(C(C)(C)C(=O)O)ccc1Cl     clearance  mL/min/kg                 1.8
2  Cc1cc(OC[C@@H]2CN(C)c3ccccc3O2)cc(C)c1C(=O)Nc1cc(CC(=O)O)ccc1Cl     clearance  mL/min/kg                 1.6

###

# TEST TARGET: Prostaglandin D2 receptor (Mus musculus)
# ASSAY REMARKS: Displacement of [3H]-PGD2 from mouse DP receptor expressed in CHO cells after 20 mins by liquid scintillation counting
pKi: −log10 of the molar value.
READOUT KIND: pKi

> print(dat)
                                 cpd.smiles  experimental.value
1  Cc1c(OC[C@@H]2CN(C)c3ccccc3O2)ccc(C(=O)Nc2cc(CC(=O)O)ccc2Cl)c1C                7.55
2  CN1C[C@@H](COc2ccc(C(=O)n3ccc4c(CC(=O)O)cccc43)cc2)Oc2ccccc21                5.77
3  Cc1cc(OC[C@@H]2CN(C)c3ccccc3O2)cc(C)c1C(=O)Nc1cc(CC(=O)O)ccc1Cl                8.19
